Test: Vorinostat serum pharmacokinetics
Type: in vivo, human
Settings: 600 mg orally twice daily, mean of 3 patients (SD 1.51)
Recorded endpoint: Cmax (µM)
Record the value in µM, omitting the unit from your answer.

Q) // Cmax lookup, key: O=C(CCCCCCC(=O)Nc1ccccc1)NO [vorinostat, suberoylanilide hydroxamic acid]
A) 3.46

----------
Assay: Vorinostat serum pharmacokinetics
Type: in vivo, human
Details: 1,700 mg orally once daily, individual patients, cycle 2
Recorded endpoint: Cmax (µM)
Record the value in µM, omitting the unit from your answer.

Q) // Cmax lookup, key: O=C(CCCCCCC(=O)Nc1ccccc1)NO [vorinostat, suberoylanilide hydroxamic acid]
A) 6.4

----------
Experiment: Vorinostat serum pharmacokinetics
Assay type: in vivo, human
Details: 600 mg orally twice daily, individual patients, cycle 2
Recorded endpoint: Cmax (µM)
Record the value in µM, omitting the unit from your answer.

Q) // Cmax lookup, key: O=C(CCCCCCC(=O)Nc1ccccc1)NO [vorinostat, suberoylanilide hydroxamic acid]
A) 4.99
